# assay.explanation: Elimination half life in Sprague-Dawley rat at 5 mg/kg, iv and 20 mg/kg, po
# Assay type: ADME, organism-based
# assay.conditions: in vivo, read-out: beta t1/2 (converted)
result.type: half-life (min)
Numeric only. Scale: min

Would you kindly share the measured half-life for `O=C(O)c1ccc(C2(NC(=O)c3cccc4ccn(Cc5ccc(C(F)(F)F)cc5)c34)CC2)cc1` ?
276

---

# test.system: Prostacyclin receptor (Homo sapiens, UniProt P43119)
# Sequence (P43119 whole entry): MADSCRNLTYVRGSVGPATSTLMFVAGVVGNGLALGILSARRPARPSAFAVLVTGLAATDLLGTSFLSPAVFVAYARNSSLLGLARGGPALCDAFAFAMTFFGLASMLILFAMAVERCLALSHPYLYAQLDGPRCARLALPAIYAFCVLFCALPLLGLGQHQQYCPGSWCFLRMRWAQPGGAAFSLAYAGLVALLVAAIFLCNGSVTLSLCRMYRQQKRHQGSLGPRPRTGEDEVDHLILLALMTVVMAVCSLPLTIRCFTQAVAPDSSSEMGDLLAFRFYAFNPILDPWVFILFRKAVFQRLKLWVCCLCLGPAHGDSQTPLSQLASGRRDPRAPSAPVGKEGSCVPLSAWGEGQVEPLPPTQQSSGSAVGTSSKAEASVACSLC
result.type: Ki

Would you kindly share the measured Ki for `C[C@H](NC(=O)c1cccc2ccn(Cc3cccc(C(F)(F)F)c3)c12)c1ccc(C(=O)O)cc1` ?
≥ 785 nM

---

# assay.explanation: Drug level in complete Freund's adjuvant challenged rat administered daily once 9 days after adjuvant challenge measured on day 18 after 2 hrs post dose
# Type: ADME, organism-based
# assay.conditions: in vivo, read-out: Drug uptake
result.type: concentration at 2 h

Would you kindly share the measured concentration at 2 h for `O=C(O)c1ccc(C2(NC(=O)c3cccc4ccn(Cc5ccc(C(F)(F)F)cc5)c34)CC2)cc1` ?
28 nM

---

Provide the recorded Ki for the entries that follow.
# test.system: Prostaglandin D2 receptor 2 (Homo sapiens, UniProt Q9Y5Y4)
# Sequence (Q9Y5Y4 whole entry): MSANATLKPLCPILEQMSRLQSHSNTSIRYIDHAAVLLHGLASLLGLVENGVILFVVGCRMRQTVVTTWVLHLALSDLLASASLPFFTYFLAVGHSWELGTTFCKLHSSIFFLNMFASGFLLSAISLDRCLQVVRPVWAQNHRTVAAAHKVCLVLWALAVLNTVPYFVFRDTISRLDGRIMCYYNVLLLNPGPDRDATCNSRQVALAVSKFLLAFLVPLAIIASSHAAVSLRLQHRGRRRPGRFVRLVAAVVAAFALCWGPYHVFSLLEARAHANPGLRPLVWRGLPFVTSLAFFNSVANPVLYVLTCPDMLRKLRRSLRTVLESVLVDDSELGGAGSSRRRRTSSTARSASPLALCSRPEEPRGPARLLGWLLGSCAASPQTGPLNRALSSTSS
# assay.explanation: Displacement of [3H]PGD2 from human Prostanoid DP2 receptor expressed in HEK293-EBNA cells after 60 mins by scintillation counting

Would you kindly share the measured Ki for `C[C@H](NC(=O)c1cccc2ccn(Cc3cccc(C(F)(F)F)c3)c12)c1ccc(C(=O)O)cc1` ?
≥ 785 nM

Would you kindly share the measured Ki for `O=C(O)c1ccc(C2(NC(=O)c3cc(Cl)cc4ccn(Cc5ccc(C(F)(F)F)cc5)c34)CC2)cc1` ?
≥ 1290 nM

Would you kindly share the measured Ki for `C[C@H](NC(=O)c1cccc2ccn(Cc3ccc(C(F)(F)F)cc3)c12)c1ccc(C(=O)O)cc1` ?
≥ 580 nM

Would you kindly share the measured Ki for `C[C@H](NC(=O)c1cc(F)cc2ccn(Cc3cccc(Cl)c3)c12)c1ccc(C(=O)O)cc1` ?
≥ 504 nM

Would you kindly share the measured Ki for `O=C(O)c1ccc(C2(NC(=O)c3cccc4ccn(Cc5ccc(C(F)(F)F)cc5)c34)CC2)cc1` ?
> 21000 nM

Would you kindly share the measured Ki for `C[C@H](NC(=O)c1cc(Cl)cc2ccn(Cc3ccc(C(F)(F)F)cc3)c12)c1ccc(C(=O)O)cc1` ?
≥ 100 nM

Would you kindly share the measured Ki for `C[C@H](NC(=O)c1cccc2ccn(Cc3cc(Cl)cc(OC(F)(F)F)c3)c12)c1ccc(C(=O)O)cc1` ?
≥ 260 nM

Would you kindly share the measured Ki for `C[C@H](NC(=O)c1cc(Cl)cc2ccn(Cc3cccc(Cl)c3)c12)c1ccc(C(=O)O)cc1` ?
≥ 110 nM

Would you kindly share the measured Ki for `C[C@H](NC(=O)c1cccc2c(Cl)cn(Cc3cccc(Cl)c3)c12)c1ccc(C(=O)O)cc1` ?
≥ 930 nM

Would you kindly share the measured Ki for `C[C@H](NC(=O)c1cccc2ccn(Cc3cccc(Cl)c3)c12)c1ccc(C(=O)O)cc1` ?
≥ 2500 nM

---

# test.system: Prostaglandin D2 receptor (Homo sapiens, UniProt Q13258)
# Sequence (Q13258 whole entry): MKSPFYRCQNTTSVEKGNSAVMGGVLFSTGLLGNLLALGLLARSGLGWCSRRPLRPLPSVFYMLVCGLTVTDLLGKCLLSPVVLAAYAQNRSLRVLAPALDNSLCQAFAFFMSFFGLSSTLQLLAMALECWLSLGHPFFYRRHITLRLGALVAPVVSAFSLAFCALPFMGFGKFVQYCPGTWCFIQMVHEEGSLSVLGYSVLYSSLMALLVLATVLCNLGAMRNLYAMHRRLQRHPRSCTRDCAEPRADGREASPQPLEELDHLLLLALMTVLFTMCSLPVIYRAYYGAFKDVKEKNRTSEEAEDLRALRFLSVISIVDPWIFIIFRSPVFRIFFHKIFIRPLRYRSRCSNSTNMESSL
# assay.explanation: Displacement of [3H]PGD2 from human Prostanoid DP1 receptor expressed in HEK293-EBNA cells after 60 mins by scintillation counting
result.type: Ki (nM)
Numeric only. Scale: nM

Would you kindly share the measured Ki for `Cc1cc2cccc(C(=O)N[C@@H](C)c3ccc(C(=O)O)cc3)c2n1Cc1cccc(Cl)c1` ?
450

Would you kindly share the measured Ki for `C[C@H](NC(=O)c1cccc2c(Cl)cn(Cc3cccc(Cl)c3)c12)c1ccc(C(=O)O)cc1` ?
14

Would you kindly share the measured Ki for `C[C@H](NC(=O)c1cccc2ccn(Cc3cc(Cl)cc(OC(F)(F)F)c3)c12)c1ccc(C(=O)O)cc1` ?
49

Would you kindly share the measured Ki for `C[C@H](NC(=O)c1cc(F)cc2ccn(Cc3cccc(Cl)c3)c12)c1ccc(C(=O)O)cc1` ?
404
